Target: Human LPA1 (Homo sapiens, UniProt Q92633)
Sequence (Q92633 whole entry): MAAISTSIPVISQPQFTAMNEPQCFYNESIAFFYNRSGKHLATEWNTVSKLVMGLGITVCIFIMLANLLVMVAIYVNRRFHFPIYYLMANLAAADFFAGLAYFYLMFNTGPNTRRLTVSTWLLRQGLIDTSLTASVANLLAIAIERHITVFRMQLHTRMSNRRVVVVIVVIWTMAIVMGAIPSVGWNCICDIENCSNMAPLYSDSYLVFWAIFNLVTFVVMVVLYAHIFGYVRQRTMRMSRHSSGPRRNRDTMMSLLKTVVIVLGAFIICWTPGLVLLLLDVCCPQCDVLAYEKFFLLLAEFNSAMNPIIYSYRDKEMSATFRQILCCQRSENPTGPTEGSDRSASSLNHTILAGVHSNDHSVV
Assay: Beta-Arrestin based assay for human LPA1R antagonists (PathHunter)
Conditions: CHO cells stably expressing ProLink tagged human LPA1R; agonist LPA 0.5 micromolar
Readout: EC50

# Compound, Result
data = [
    ("Cc1cc(CC(=O)O)ccc1-c1ccc(-c2snc(C)c2NC(=O)O[C@H](C)c2ccccc2Cl)cc1", "50 to 500 nM"),
    ("Cc1cc(-c2snc(C)c2NC(=O)O[C@H](C)c2ccccc2Cl)c(C)cc1-c1ccc(C2(C(=O)O)CC2)cc1", "50 to 500 nM"),
    ("Cc1nc(-c2ccc(-c3ccc(C4(C(=O)O)CC4)cc3)cc2)c(NC(=O)OCc2ccccc2)o1", "> 500 nM"),
    ("C[C@@H](OC(=O)Nc1ncsc1-c1ccc(-c2ccc(C3(C(=O)O)CC3)cc2)cc1)c1ccccc1", "50 to 500 nM"),
    ("Cc1nsc(-c2ccc(-c3ccc(C4(C(=O)O)CC4)cc3)c3c2CCC3)c1NC(=O)O[C@H](C)c1ccccc1", "> 500 nM"),
    ("C[C@@H](OC(=O)Nc1c(-c2ccc(-c3ccc(C4(C(=O)O)CC4)cc3)cc2)ncn1C)c1ccccc1", "50 to 500 nM"),
    ("CC(OC(=O)Nc1n[nH]nc1-c1ccc(-c2ccc(C3(C(=O)O)CC3)cc2)cc1)c1ccccc1 (stereo not shown)", "> 500 nM"),
    ("Cc1snc(-c2ccc(-c3ccc(C4(C(=O)O)CC4)cc3)cc2)c1NC(=O)O[C@H](C)c1ccccc1Cl", "< 50 nM"),
    ("Cc1nsc(-c2ccc(-c3ccc(C4(C(=O)O)CC4)cc3)cc2)c1NC(=O)O[C@H](C)c1cccc(Cl)c1", "< 50 nM"),
    ("C[C@@H](OC(=O)Nc1c(-c2ccc(-c3ccc(C4(C(=O)O)CC4)cc3)cc2)oc2cc(F)ccc12)c1ccccc1Cl", "< 50 nM"),
    ("Cc1nsc(-c2ccc(-c3ccc(C4(C(=O)O)CC4)cc3)cc2)c1NC(=O)OC(C)c1ccccc1 (stereo not shown)", "< 50 nM"),
    ("CC(=O)Nc1ccnc(-c2ccc(-c3ccc(CC(=O)O)cc3)cc2)c1 [reference compound]", "> 500 nM"),
    ("Cc1nsc(-c2ccc(-c3ccc(C4(C(=O)OC5OC(C(=O)O)C(O)C(O)C5O)CC4)cc3)cc2)c1NC(=O)O[C@H](C)c1ccccc1 (stereo partly shown)", "> 500 nM"),
    ("C[C@@H](OC(=O)Nc1c(-c2cc(F)c(-c3ccc(C4(C(=O)O)CC4)cc3)cc2F)cnn1C)c1ccccc1Cl", "< 50 nM"),
    ("O=C(O)Cc1ccc(-c2ccc(-c3cc(NC(=O)C4CCCC4)ccn3)cc2)cc1 [reference compound]", "> 500 nM"),
    ("C[C@@H](OC(=O)Nc1nncn1-c1ccc(-c2ccc(C3(C(=O)O)CC3)cc2)cc1)c1ccccc1Cl", "> 500 nM"),
    ("Cc1nsc(-c2ccc(-c3ccc(C4(C(=O)O)CC4)cc3)cc2C#N)c1NC(=O)O[C@H](C)c1ccccc1", "> 500 nM"),
    ("CCn1ncc(-c2ccc(-c3ccc(C4(C(=O)O)CC4)cc3)cc2)c1NC(=O)O[C@H](C)c1ccccc1", "< 50 nM"),
    ("Cc1nnn(-c2ccc(-c3ccc(C4(C(=O)O)CC4)cc3)cc2)c1NC(=O)O[C@H](C)c1ccccc1Cl", "< 50 nM"),
    ("Cc1nsc(-c2ccc3cc(C#CC4(C(=O)O)CC4)ccc3c2)c1NC(=O)O[C@H](C)c1ccccc1Cl", "< 50 nM"),
    ("Cc1cc(-c2snc(C)c2NC(=O)O[C@H](C)c2ccccc2Cl)c(F)cc1-c1ccc(C2(C(=O)O)CC2)cc1", "< 50 nM"),
    ("O=C(Nc1snnc1-c1ccc(-c2ccc(C3(C(=O)O)CC3)cc2)cc1)OCc1ccccc1", "> 500 nM"),
    ("Cc1ccc2c(NC(=O)O[C@H](C)c3ccccc3)c(-c3ccc(-c4ccc(C5(C(=O)O)CC5)cc4)cc3)sc2n1", "> 500 nM"),
    ("C[C@@H](OC(=O)Nc1c(-c2cc(F)c(-c3ccc(C4(C(=O)O)CC4)cc3)cc2F)cnn1C)c1ccccc1", "< 50 nM"),
    ("Cc1noc(-c2ccc(-c3ccc(C4(C(=O)O)CN(S(C)(=O)=O)C4)cc3)cc2)c1NC(=O)O[C@H](C)c1ccccc1Cl", "< 50 nM"),
    ("CCCOC(=O)NCC(=O)c1ccc(-c2ccc(CC(=O)O)cc2)cc1 [reference compound]", "> 500 nM"),
    ("Cc1noc(-c2ccc(-c3ccc(C(C(=O)O)c4ccccc4)cc3)cc2)c1NC(=O)O[C@H](C)c1ccccc1Cl (single isomer, unassigned) [Compound 16]", "< 50 nM"),
    ("C[C@@H](OC(=O)Nc1nonc1-c1ccc(-c2ccc(C3(C(=O)O)CC3)cc2)cc1)c1ccccc1", "< 50 nM"),
]
